Reference for the values: the supplement of paper PMC9170038

System: MS2 coat protein
Experiment: apparent KD of MS2 coat protein; designed switch direction (-1 OFF switch, 1 ON switch): 1; higher = weaker reporter binding
Details: Eterna round: R95; input ligand: FMN 200 uM
measurementType: apparent KD of MS2 coat protein (µM)
Write the value in µM as a bare number.

# example entries with known answers
INSERT INTO results (residues, observedresult) VALUES
  ('AAUUUGGGACAUGAGGAUCACCCAUGUAUUAUAAAUGGGACAAGUUUUUUGCUCGUCUUAUACAUGGGUGAAAAUCU [Test] (puzzle: Sensor for hsa-mir-208a version 2)', 0.0178),
  ('UAGAAUCUAUCUCAGGAUAUCAUGUCAAAGACAUGAGGAUCACCCAUGUACCAGGAAACUGGUUAUGAGAAGGGAGAUAGAUUCA [Mat - Same State 2 - Mod - D34] (puzzle: Same State 2)', 0.124),
  ('AAAGCACAUGAGGAUCACCCAUGUGGAAAUAACACAGGAUAUCUGACCGAAACUAAGGCGAGAGAAGGGUGACCUA [Engeerbi] (puzzle: Same State 1)', 0.148);

// apparent KD of MS2 coat protein lookup, key: AUGGUGCAGGUACAGGAUAUGUUGCUCGUAACAUGAGGAUCACCCAUGUACCUAUGAGAAUAAAUGCAGAAGGGUGCACACCACG [Mat - Same State 2 - Mod of UCT - D92] (puzzle: Same State 2)
0.057

Name the reported apparent KD of MS2 coat protein value associated with the sequence GUGCGGCUGCCACAGGAUAUACGUGGAUCGACAUGAGGAUCACCCAUGUAUAUCCUAAUAAUUGCGUAGAAGGGUGGUCAGCCAG [Iserinqu] (puzzle: Same State 2)
0.09

Requested field: apparent KD of MS2 coat protein. Item: AGUCCAGCCUGAGCUGGACAAAAGCAUGUACAUGAGGAUCACCCAUGUCAUGUACAAGCUUUUUGCUCGUCAUAAUA [Mat - hsa-mir-208a - Mod of JL - D28] (puzzle: Sensor for hsa-mir-208a)
0.653
